Target: Somatostatin receptor type 3 (Homo sapiens, UniProt P32745)
Sequence (P32745 whole entry): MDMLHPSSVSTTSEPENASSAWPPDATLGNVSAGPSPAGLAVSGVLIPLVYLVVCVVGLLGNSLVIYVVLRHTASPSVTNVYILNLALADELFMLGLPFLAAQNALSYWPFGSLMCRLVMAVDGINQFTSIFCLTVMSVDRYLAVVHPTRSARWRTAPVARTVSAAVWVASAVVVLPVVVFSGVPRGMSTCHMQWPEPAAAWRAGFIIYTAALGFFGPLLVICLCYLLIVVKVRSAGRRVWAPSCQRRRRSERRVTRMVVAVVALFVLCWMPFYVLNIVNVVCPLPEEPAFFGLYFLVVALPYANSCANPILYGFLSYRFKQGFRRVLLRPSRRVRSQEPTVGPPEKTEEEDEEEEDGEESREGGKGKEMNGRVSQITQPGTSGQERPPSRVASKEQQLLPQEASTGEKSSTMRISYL
Bridge positions count the residues as written; N and C are the ends. Square brackets hold non-standard residues; d marks the D form. Peptide text beside a SMILES is read from it. dPhe(4-F) = N[C@H](Cc1ccc(F)cc1)C(=O)O; 2Nal = N[C@@H](Cc1ccc2ccccc2c1)C(=O)O; Bta = N[C@@H](Cc1csc2ccccc12)C(=O)O; 3Pal = N[C@@H](Cc1cccnc1)C(=O)O; Tle = CC(C)(C)[C@H](N)C(=O)O
OBSERVABLE: Ki (nM)

Consider the reported Ki for these compounds:
# COMPOUND, Ki (nM)
rows = [
    ("CC(C)[C@@H]1NC(=O)[C@H](CCCCN)NC(=O)[C@@H](Cc2c[nH]c3ccccc23)NC(=O)[C@H](Cc2csc3ccccc23)NC(=O)[C@H](NC(=O)[C@@H](N)Cc2ccc3ccccc3c2)CSSC[C@@H](C(=O)N[C@@H](Cc2ccc3ccccc3c2)C(N)=O)NC1=O (H-[2Nal][dC][Bta][dW]KVC[2Nal]-NH2; disulfide 2-7)", 709),
    ("CC(C)(C)[C@@H]1NC(=O)[C@H](CCCCN)NC(=O)[C@@H](Cc2c[nH]c3ccccc23)NC(=O)[C@H](Cc2cccnc2)NC(=O)[C@H](NC(=O)[C@H](N)Cc2ccc(F)cc2)CSSC[C@@H](C(=O)N[C@@H](Cc2ccc3ccccc3c2)C(N)=O)NC1=O (H-[dPhe(4-F)][dC][3Pal][dW]K[Tle]C[2Nal]-NH2; disulfide 2-7)", 555),
]

(P) CC(C)[C@@H]1NC(=O)[C@H](CCCCN)NC(=O)[C@@H](Cc2c[nH]c3ccccc23)NC(=O)[C@H](Cc2cccnc2)NC(=O)[C@H](NC(=O)[C@@H](N)Cc2ccc(I)cc2)CSSC[C@@H](C(=O)N[C@@H](Cc2ccc(I)cc2)C(N)=O)NC1=O
(Q) CC(C)[C@H]1NC(=O)[C@H](CCCCN)NC(=O)[C@@H](Cc2c[nH]c3ccccc23)NC(=O)[C@H](Cc2c[nH]cn2)NC(=O)C(NC(=O)[C@@H](N)Cc2cccc(F)c2)CSSCC(C(=O)N[C@@H](Cc2cccc(F)c2)C(N)=O)NC1=O (stereo in doubt)
Challenge: Choose between P and Q : whose measured Ki value is numerically larger? # respond with the chosen item's label
Response given: Q
